Biological target: V1a (Homo sapiens)
Assay: Human vasopression V1a receptor binding assay
Set-up: host or cells: CHO cells (hV1a cell line), whole adherent cells
Details: hV1a cell line (CHO), 1 nM 3H-AVP; Table 17; read-out: V1a Binding Affinity (IC50 (nM))
IC50: recorded values
MEASURED QUANTITY: IC50 (nM)

>>> measured_result("O=C(NCc1cccc(C(F)(F)F)c1)[C@H](CCC(=O)N1CCN(C2CCCCC2)CC1)N1C(=O)[C@@H](N2C(=O)OC[C@@H]2c2ccccc2)[C@H]1/C(Cl)=C/c1ccccc1 [Example 226]")
0.49
>>> measured_result("CC(C)N1CCN(C(=O)CC[C@@H](C(=O)NCc2cccc(C(F)(F)F)c2)N2C(=O)[C@@H](N3C(=O)OC[C@@H]3c3ccccc3)[C@H]2/C(Cl)=C/c2ccccc2)CC1 [Example 230]")
7.07
>>> measured_result("O=C(NCc1cccc(C(F)(F)F)c1)[C@H](CCC(=O)N1CCC(N2CCCCC2)CC1)N1C(=O)[C@@H](N2C(=O)OC[C@@H]2c2ccccc2)[C@H]1/C=C/c1ccccc1 [Example 88]")
2.4
>>> measured_result("O=C(NCc1cccc(C(F)(F)F)c1F)[C@H](CCC(=O)N1CCN(C2CCCCC2)CC1)N1C(=O)[C@@H](N2C(=O)OC[C@@H]2c2ccccc2)[C@H]1/C=C/c1ccccc1 [Example 180]")
0.33

====

Target: V1a (Homo sapiens)
Test: Human vasopression V1a receptor binding assay
Details: hV1a cell line (CHO); Table 18
pKi: −log10 of the molar value.
MEASURED QUANTITY: pKi

>>> measured_result("O=C(C[C@@H](C(=O)NCc1cccc(C(F)(F)F)c1)N1C(=O)[C@@H](N2C(=O)OC[C@@H]2c2ccccc2)[C@H]1/C=C/c1ccccc1)N[C@H]1CCN(Cc2ccccc2)C1")
8.44
>>> measured_result("O=C(NCc1ccccn1)[C@H](CCC(=O)N1CCN(C2CCCCC2)CC1)N1C(=O)[C@@H](N2C(=O)OC[C@@H]2c2ccccc2)[C@H]1/C=C/c1ccccc1")
8.00
>>> measured_result("CCCCN1CCN(C(=O)CC[C@@H](C(=O)NCc2cccc(C(F)(F)F)c2)N2C(=O)C(N3C(=O)OC[C@@H]3c3ccccc3)C2/C(Br)=C/c2ccccc2)CC1 (stereo partly drawn) [Example 230L]")
8.11

====

log10(Ki): recorded values
Target: V1a (Homo sapiens, UniProt P37288)
Sequence (P37288 whole entry): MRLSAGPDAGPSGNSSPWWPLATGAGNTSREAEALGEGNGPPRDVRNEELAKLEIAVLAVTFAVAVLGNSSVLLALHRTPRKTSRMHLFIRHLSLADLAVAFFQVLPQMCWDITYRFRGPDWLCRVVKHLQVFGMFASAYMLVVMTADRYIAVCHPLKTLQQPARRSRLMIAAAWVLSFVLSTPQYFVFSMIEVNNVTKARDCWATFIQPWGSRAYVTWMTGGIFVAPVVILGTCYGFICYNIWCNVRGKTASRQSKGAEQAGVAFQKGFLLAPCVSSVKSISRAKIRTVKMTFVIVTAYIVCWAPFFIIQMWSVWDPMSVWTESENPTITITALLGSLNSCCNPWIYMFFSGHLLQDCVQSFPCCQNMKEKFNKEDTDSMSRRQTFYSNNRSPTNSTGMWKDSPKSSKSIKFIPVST
Experiment: Human vasopression V1a receptor binding assay
Details: hV1a cell line (CHO); Table 18
Description: Human vasopression V1a receptor binding assay. A cell line expressing the human V1a receptor in CHO cells (henceforth referred to as the hV1a cell line) was obtained from Dr. Michael Brownstein, NIMH, Bethesda, Md., USA. […] Samples were counted in a liquid scintillation counter (Beckman LS3801). IC50 values were calculated by Prism Curve fitting software. […]
MEASURED QUANTITY: log10(Ki) (log10 of the value in nM)

>>> measured_result("O=C(C[C@@H](C(=O)NCc1cccc(C(F)(F)F)c1)N1C(=O)[C@@H](N2C(=O)OC[C@@H]2c2ccccc2)[C@H]1/C=C/c1ccccc1)NC1CCN(Cc2ccccc2)CC1")
0.05
>>> measured_result("CCCCN1CCN(C(=O)C(C(=O)NCc2cccc(C(F)(F)F)c2)N2C(=O)[C@@H](N3C(=O)OC[C@@H]3c3ccccc3)[C@H]2/C=C/c2ccccc2)CC1 (mixture of isomers)")
0.81
>>> measured_result("O=C(C(COCc1ccccc1)N1C(=O)[C@@H](N2C(=O)OC[C@@H]2c2ccccc2)[C@H]1/C=C/c1ccccc1)N1CCN(C2CCCCC2)CC1 (mixture of isomers) [Example 232D]")
0.10
>>> measured_result("CCN1CCN(C(=O)CC[C@@H](C(=O)NCc2cccc(C(F)(F)F)c2)N2C(=O)[C@@H](N3C(=O)OC[C@@H]3c3ccccc3)[C@H]2/C(Cl)=C/c2ccccc2)CC1")
0.92
>>> measured_result("O=C([C@@H](COCc1ccccc1)N1C(=O)[C@@H](N2C(=O)OC[C@@H]2c2ccccc2)[C@H]1/C=C/c1ccccc1)N1CCC(N2CCCCC2)CC1")
-0.08
>>> measured_result("O=C(NCc1cccc(C(F)(F)F)c1)[C@@H](CC(=O)N1CCC(N2CCCCC2)CC1)N1C(=O)[C@@H](N2C(=O)OC[C@@H]2c2ccccc2)[C@H]1/C=C/c1ccccc1")
0.17
>>> measured_result("O=C(NCc1cccc(C(F)(F)F)c1)C(C(=O)N1CCN(CCc2ccccc2)CC1)N1C(=O)[C@@H](N2C(=O)OC[C@@H]2c2ccccc2)[C@H]1/C=C/c1ccccc1 (mixture of isomers)")
1.93
>>> measured_result("O=C(C[C@H](C(=O)NCc1cccc(C(F)(F)F)c1)N1C(=O)[C@@H](N2C(=O)OC[C@@H]2c2ccccc2)[C@H]1/C=C/c1ccccc1)NC1CCN(Cc2ccccc2)CC1 [Example 134C]")
0.75
>>> measured_result("O=C(NC1(c2cccc(F)c2)CCCC1)[C@H](CCC(=O)N1CCN(C2CCCCC2)CC1)N1C(=O)[C@@H](N2C(=O)OC[C@@H]2c2ccccc2)[C@H]1/C=C/c1ccccc1 [Example 221AM]")
0.43
>>> measured_result("O=C(NCCc1ccccc1)[C@H](CCC(=O)N1CCN(C2CCCCC2)CC1)N1C(=O)[C@@H](N2C(=O)OC[C@@H]2c2ccccc2)[C@H]1/C=C/c1ccccc1")
0.49
>>> measured_result("COc1ccccc1C=CC1C(N2C(=O)OCC2c2ccccc2)C(=O)N1C(CC(=O)N1CCC(N2CCCCC2)CC1)C(=O)NCc1cccc(C(F)(F)F)c1 (centres unmarked)")
0.57
>>> measured_result("CN(Cc1cccc(Br)c1)C(=O)[C@H](CCC(=O)N1CCN(C2CCCCC2)CC1)N1C(=O)[C@@H](N2C(=O)OC[C@@H]2c2ccccc2)[C@H]1/C=C/c1ccccc1 [Example 221D]")
0.17
>>> measured_result("CC(C)N1CCN(C(=O)CC[C@H](C(=O)NCc2cccc(C(F)(F)F)c2)N2C(=O)[C@@H](N3C(=O)OC[C@@H]3c3ccccc3)[C@H]2/C=C/c2ccccc2)CC1")
1.11
>>> measured_result("O=C(CC[C@@H](C(=O)N[C@@H]1CCCc2ccccc21)N1C(=O)[C@@H](N2C(=O)OC[C@@H]2c2ccccc2)[C@H]1/C=C/c1ccccc1)NCCN1CCCCC1 [Example 221X]")
0.86
>>> measured_result("O=C(NCc1cccc(C(F)(F)F)c1)[C@H](CCC(=O)N1CCN(CCC2CCCCC2)CC1)N1C(=O)[C@@H](N2C(=O)OC[C@@H]2c2ccccc2)[C@H]1/C=C/c1ccccc1")
-0.09
>>> measured_result("O=C(NCc1ccco1)[C@H](CCC(=O)N1CCN(C2CCCCC2)CC1)N1C(=O)[C@@H](N2C(=O)OC[C@@H]2c2ccccc2)[C@H]1/C=C/c1ccccc1")
0.52
>>> measured_result("O=C(NCc1cccc(C(F)(F)F)c1)C(CCC(=O)N1CCN(C2CCCCC2)CC1)N1C(=O)C(N2C(=O)OCC2c2ccccc2)C1C=Cc1ccccc1 (single isomer, unassigned)")
-0.57
>>> measured_result("O=C(NC1(c2ccccc2)CC1)[C@H](CCC(=O)N1CCN(C2CCCCC2)CC1)N1C(=O)[C@@H](N2C(=O)OC[C@@H]2c2ccccc2)[C@H]1/C=C/c1ccccc1")
0.44
>>> measured_result("CCN1CCN(C(=O)CC[C@@H](C(=O)N[C@@H]2CCCc3ccccc32)N2C(=O)[C@@H](N3C(=O)OC[C@@H]3c3ccccc3)[C@H]2/C=C/c2ccccc2)CC1 [Example 221BD]")
0.22
>>> measured_result("O=C(NCc1cc(Cl)ccc1Cl)[C@H](CCC(=O)N1CCN(C2CCCCC2)CC1)N1C(=O)[C@@H](N2C(=O)OC[C@@H]2c2ccccc2)[C@H]1/C=C/c1ccccc1")
0.45

Sourced from patent US9597314B2
